A collection of compounds and their measured Drug uptake
Tested on: Brain
Test: Biodistribution in ICR mouse brain at 5 to 10 uCi, iv after 2 mins
Assay type: ADME, organism-based
Details: in vivo
readout-kind: Drug uptake

INSERT INTO assay_data (molecular_string, result) VALUES
  ('CNc1ccc(-c2cn(-c3ccc([125I])cc3)nn2)cc1', '9.4 % ID/g'),
  ('CN(C)c1ccc(-c2cn(-c3ccc([125I])cc3)nn2)cc1', '7.22 % ID/g'),
  ('CN(C)c1ccc(-c2cn(-c3ccc(OCCC[18F])cc3)nn2)cc1', '6.56 % ID/g'),
  ('CN(C)c1ccc(-c2cn(-c3ccc(OCC[18F])cc3)nn2)cc1', '5.92 % ID/g');
